Value source: patent EP3666770A1

log10 IC50: recorded values
System: KG-1
Test: Cell-based antiproliferative test (AlamarBlue), KG-1
Conditions: Homo sapiens, KG-1; 120 h incubation; average values of several tests; read-out: KG-1 IC50, mkM
measured-metric: log10 IC50 (log10 of the value in µM)

1) O=C(C1CN(c2ccc3ncn(-c4ccc(-c5cn[nH]c5)cc4)c3c2F)C1)N1CCOCC1 | 1.37
2) COC1CN(C(=O)c2cnc3c(N)ncc(-c4ccc(-c5cnn(C)c5)cc4)c3c2)C1 | -2.30
3) O=C(c1ccccn1)c1c[nH]c2ncc(-c3ccc(N4CCOCC4)cc3)cc12 | 0.20
4) COC1CN(C(=O)c2cnc3cncc(-c4ccc(-c5cnn(C)c5)cc4)c3c2)C1 | 0.05
5) Cn1cc(-c2ccc(-c3cnc(N)c4ncc(C(=O)NCCO)cc34)cc2)cn1 | -2.05
6) COc1cccc(C(=O)c2c[nH]c3ncc(-c4ccc(N(C)C)cc4)cc23)c1 | -0.70
7) COCCNC(=O)c1ccc2nccc(-c3ccc(-c4cnn(C)c4)cc3)c2c1 | 0.98
8) Cn1cc(-c2ccc(-c3ccc4nccc(C(=O)N5CCCCC5)c4c3)cc2)cn1 | 1.24
9) COc1cc(-c2cnc3[nH]cc(C(=O)c4ccncc4)c3c2)ccc1N1CCOCC1 | 1.34

###

Test: Permeability through Caco-2 cell monolayer
Format: in vitro ADME
Conditions: human, Caco-2; A->B transfer; 10 µM; pH 6.5 -> pH 7.4; 2 hours at 37 °C
Could you please mark fulfilled for values of Papp A→B at 2 h, 10 µM below 40 ×10⁻⁶ cm/s and not fulfilled for values at or above it?

1) COCCN(C)C(=O)c1cnc2cncc(-c3ccc(-c4cnn(C)c4)cc3)c2c1 [CDK8-3-25] | fulfilled
2) COc1ccc(-c2cnc3[nH]cc(C(=O)c4cccnc4)c3c2)c(C#N)c1 [CDK8-4-28] | not fulfilled
3) COCCNC(=O)c1ccc2nccc(-c3ccc(-c4cnn(C)c4)cc3)c2c1 [CDK8-6-14] | not fulfilled
4) COc1cc(-c2cnc3[nH]cc(C(=O)c4ccncc4)c3c2)ccc1N1CCOCC1 [CDK8-4-31] | fulfilled
5) Cn1cc(-c2ccc(-c3cnc(N)c4ncc(C(=O)NCCO)cc34)cc2)cn1 [CDK8-3-42] | fulfilled
6) COc1cc(-c2cnc3[nH]cc(C(=O)c4cccnc4)c3c2)ccc1N1CCOCC1 [CDK8-4-27] | not fulfilled
7) Cn1cc(-c2ccc(-c3cnc(N)c4ncc(C(=O)N5CCC5)cc34)cc2)cn1 [CDK8-3-26] | not fulfilled
8) COCCNC(=O)c1cnc2c(N)ncc(-c3ccc(-c4cnn(C)c4)cc3)c2c1 [CDK8-3-24] | fulfilled
9) O=C(c1ccncc1)c1c[nH]c2ncc(-c3ccc(N4CCOCC4)c(O)c3)cc12 [CDK8-4-11] | fulfilled
10) COc1cc(-c2cnc3[nH]cc(C(=O)c4ccccn4)c3c2)ccc1N(C)C [CDK8-4-21] | not fulfilled
11) O=C(c1cccnc1)c1c[nH]c2ncc(-c3ccc(N4CCOCC4)cc3)cc12 [CDK8-4-37] | fulfilled
12) COCCN(C)C(=O)c1cnc2c(N)ncc(-c3ccc(-c4cnn(C)c4)cc3)c2c1 [CDK8-3-32] | fulfilled
13) O=C(c1cccnc1)c1c[nH]c2ncc(-c3ccc(N4CCOCC4)c(O)c3)cc12 [CDK8-4-7] | not fulfilled

###

Assay: Chemical stability in human blood plasma
Assay type: in vitro ADME
Settings: pooled human blood plasma; 10 µM; 4 hours at 37°C; substance amount in % after thermostatting
Stability in blood plasma, %: recorded values
measured-metric: Stability in blood plasma, %

1) Cn1cc(-c2ccc(-c3cnc(N)c4ncc(C(=O)N5CCOCC5)cc34)cc2)cn1 [CDK8-3-27] | 94.2%
2) Cn1cc(-c2ccc(-n3cnc4ccc(C(=O)N5CCC5)cc43)cc2)cn1 [CDK8-1-18] | 100%
3) COc1cc(-c2cnc3[nH]cc(C(=O)c4cccnc4)c3c2)ccc1N1CCOCC1 [CDK8-4-27] | 100%
4) CN(C)c1ccc(-c2cnc3[nH]cc(C(=O)c4cccnc4)c3c2)c(C#N)c1 [CDK8-4-26] | 100%
5) COc1cccc(C(=O)c2c[nH]c3ncc(-c4ccc(N(C)C)cc4)cc23)c1 [CDK8-4-34] | 100%
6) O=C(c1ccncc1)c1c[nH]c2ncc(-c3ccc(N4CCOCC4)c(O)c3)cc12 [CDK8-4-11] | 88.5%
7) NC(=O)c1ccc(-n2cnc3ccc(N4CC(C(=O)Nc5ccccc5)C4)cc32)cc1 [CDK8-1-6] | 100%
8) CN(C)c1ccc(-c2cnc3[nH]cc(C(=O)c4cccnc4)c3c2)cc1 [CDK8-4-39] | 100%
9) COc1ccc(-n2cnc3ccc(N4CC(C(=O)N5CCOCC5)C4)cc32)cc1 [CDK8-1-12] | 98%
10) COc1cc(-c2cnc3[nH]cc(C(=O)c4cccnc4)c3c2)ccc1N(C)C [CDK8-4-25] | 100%
11) CN(C)c1ccc(-c2cnc3[nH]cc(C(=O)c4ccncc4)c3c2)cc1 [CDK8-4-40] | 100%
12) COc1ccc(-c2cnc3[nH]cc(C(=O)c4ccncc4)c3c2)cc1 [CDK8-4-33] | 100%
13) Cn1cc(-c2ccc(-c3cncc4ncc(C(=O)N5CCCC5)cc34)cc2)cn1 [CDK8-3-16] | 100%
14) COCCN(C)C(=O)c1cnc2c(N)ncc(-c3ccc(-c4cnn(C)c4)cc3)c2c1 [CDK8-3-32] | 100%
15) O=C(c1ccc2ncn(-c3ccc(-c4cn[nH]c4)cc3)c2c1)N1CCCCC1 [CDK8-1-3] | 97.7%
16) O=C(C1CN(c2cc(F)c3ncn(-c4ccc(-c5cn[nH]c5)cc4)c3c2)C1)N1CCOCC1 [CDK8-1-8] | 97.8%
17) CN1CCN(C(=O)c2cnc3cncc(-c4ccc(N(C)C)cc4)c3c2)CC1 [CDK8-3-8] | 98%
18) O=C(c1cccnc1)c1c[nH]c2ncc(-c3ccc(N4CCOCC4)cc3)cc12 [CDK8-4-37] | 100%

###

Test system: KG-1
Assay: Cell-based antiproliferative test (AlamarBlue), KG-1
Settings: Homo sapiens, KG-1; 120 h incubation; average values of several tests; read-out: KG-1 IC50, mkM
pIC50: −log10 of the molar value.
measured-metric: pIC50

1) COCCNC(=O)c1cnc2cncc(-c3ccc(-c4cnn(C)c4)cc3)c2c1 [CDK8-3-18] | 7.10
2) Cn1cc(-c2ccc(-c3ccnc4ccc(N5CCCC5=O)cc34)cc2)cn1 [CDK8-6-13] | 4.91
3) Cn1cc(-c2ccc(-c3cncc4ncc(N5CCCC5=O)cc34)cc2)cn1 [CDK8-3-17] | 5.41
4) Cn1cc(-c2ccc(-c3cncc4ncc(C(=O)N5CCCC5)cc34)cc2)cn1 [CDK8-3-16] | 6.03
5) O=C(c1ccc2ncn(-c3ccc(-c4cn[nH]c4)cc3)c2c1)N1CCC1 [CDK8-1-5] | 5.33
6) Cn1cc(-c2ccc(-c3cnc(N)c4ncc(C(=O)N5CCC5)cc34)cc2)cn1 [CDK8-3-26] | 8.52
7) O=C(c1ccncc1)c1c[nH]c2ncc(-c3ccc(N4CCOCC4)cc3)cc12 [CDK8-4-38] | 4.22
8) CN(C)c1ccc(-c2cnc3[nH]cc(C(=O)c4cccnc4)c3c2)cc1 [CDK8-4-39] | 4.56
9) O=C(c1cccnc1)c1c[nH]c2ncc(-c3ccc(N4CCOCC4)cc3)cc12 [CDK8-4-37] | 5.30
10) Cn1cc(-c2ccc(-n3cnc4ccc(C(=O)N5CCC5)cc43)cc2)cn1 [CDK8-1-18] | 5.67
11) COc1cc(-c2cnc3[nH]cc(C(=O)c4cccnc4)c3c2)ccc1N1CCOCC1 [CDK8-4-27] | 5.28
12) CN(C)c1ccc(-c2cnc3[nH]cc(C(=O)c4ccncc4)c3c2)cc1 [CDK8-4-40] | 4.60
13) Cn1cc(-c2ccc(-c3cncc4ncc(C(=O)N5CCC5)cc34)cc2)cn1 [CDK8-3-14] | 7.30
14) O=C(c1ccc2ncn(-c3ccc(-c4cn[nH]c4)cc3)c2c1)N1CCCCC1 [CDK8-1-3] | 4.56
15) CN1CCN(C(=O)c2cnc3c(N)ncc(-c4ccc(-c5cnn(C)c5)cc4)c3c2)CC1 [CDK8-3-31] | 8.70

###

Assay: Permeability through Caco-2 cell monolayer
Type: in vitro ADME
Conditions: human, Caco-2; A->B transfer; 10 µM; pH 6.5 -> pH 7.4; 2 hours at 37 °C
Papp A→B at 2 h, 10 µM: recorded values
measured-metric: Papp A→B at 2 h, 10 µM (×10⁻⁶ cm/s)

1) COc1ccc(-c2cnc3[nH]cc(C(=O)c4ccncc4)c3c2)cc1 | 13.4
2) O=C(c1ccc2ncn(-c3ccc(-c4cn[nH]c4)cc3)c2c1)N1CCCCC1 | 64.1
3) COCCNC(=O)c1cnc2cncc(-c3ccc(-c4cnn(C)c4)cc3)c2c1 | 46.9
4) O=C(C1CN(c2cc(F)c3ncn(-c4ccc(-c5cn[nH]c5)cc4)c3c2)C1)N1CCOCC1 | 19.7
5) O=C(c1ccncc1)c1c[nH]c2ncc(-c3ccc(N4CCOCC4)cc3)cc12 | 13.9
6) Cn1cc(-c2ccc(-c3cnc(N)c4ncc(C(=O)N5CCOCC5)cc34)cc2)cn1 | 22.6
7) CN(C)c1ccc(-c2cnc3[nH]cc(C(=O)c4cccnc4)c3c2)cc1O | 87.6
8) COc1cc(-c2cnc3[nH]cc(C(=O)c4ccccn4)c3c2)ccc1N1CCOCC1 | 36.9
